Test system: HS 578T breast
Assay: NCI tumour cell line growth inhibition, 48 h
For each record, write down the corresponding GI50.

O=C1NC(SCc2ccc(F)cc2)=N/C1=C/c1cccc(OCc2ccc(Cl)cc2)c1
9.36 µM
CNC(=O)c1cncc(/C=C/c2c(Cl)cccc2Cl)c1
7.17 µM
O=CN1N=C(c2ccc(Nc3ccnc4cc(Cl)ccc34)cc2)CC1c1ccc(Cl)cc1 (stereo not given)
3.93 µM
Cc1ccccc1NC(=O)c1cc2ccccc2cc1O
3.12 µM
CNc1ncc2cc(Oc3ccc(F)cc3F)c(=O)n(C)c2n1
> 25 µM
NS(=O)(=O)c1ccc(N2N=C(c3cccs3)CC2c2ccccc2O)cc1 (stereo not given)
0.845 µM
Oc1ccc(O)c2c1C1(Cl)C(Cl)=C(Cl)C2(Cl)C1(Cl)Cl
2.07 µM
COc1cc2nc(N3CCC[C@@H](NC4=CC(=O)c5ccccc5C4=O)C3)nc(N)c2cc1OC
2.14 µM

For each of the molecules below, state GI50.
1. Cc1cc(Cl)ccc1Nc1nc(C(F)(F)F)ccc1C(=O)Nc1cccc(C(F)(F)F)c1
2. Nc1cc(-c2ccccc2)n(C(=O)Nc2ccc(Oc3ccccc3)cc2)n1

Output line:
3.95 µM
31.9 µM
